- assay info: In vitro stability in human serum (intact radiopeptide by radio-HPLC)
- Assay type: in vitro ADME
- test context: human, fresh human serum, radiolabeled peptide, 37 °C, 1 h after incubation, n = 2
Where a SMILES comes first, the peptide text is derived from it. [ ]: non-standard residue; d: D form. The star is where a group is joined. DOTA = O=C(O)CN1CCN(CC(=O)O)CCN(CC(=O)*)CCN(CC(=O)O)CC1; NMeNle = CCCC[C@H](NC)C(=O)O
property name: remaining at 1 h, 1000 pmol/mL (%)
Give the quantity in %, number only.

## Task Which remaining at 1 h, 1000 pmol/mL value belongs to CCCC[C@@H](C(=O)N[C@@H](CC(=O)O)C(=O)N[C@@H](Cc1ccccc1)C(N)=O)N(C)C(=O)[C@H](Cc1c[nH]c2ccccc12)NC(=O)CNC(=O)[C@H](Cc1ccc(O)cc1)NC(=O)[C@H](C)NC(=O)[C@@H](CCC(=O)O)NC(=O)CN1CCN(CC(=O)O)CCN(CC(=O)O)CCN(CC(=O)O)CC1 [[^111In]In-DOTA-[Phe^8]MGS5, metal not drawn] ({DOTA}-[dE]AYGW[NMeNle]DF-NH2) ?
## Result 99.5
